system: SKMG3 parental cells and enhancer deletion clones; test: Clonogenic assay of TMZ sensitivity; format: cell-based, human; conditions: Homo sapiens, parental SKMG3 lines and wild type control clone
pIC50: −log10 of the molar value.
endpoint: pIC50

{"molecule": "Cn1nnc2c(C(N)=O)ncn2c1=O [TMZ, temozolomide]", "value": "< 4.00"}
